All figures here come from ChEMBL document CHEMBL4184285.

Test system: HepG2
Test: Cytotoxicity against human HepG2 cells assessed as reduction in cell viability after 24 hrs by WST1 assay
Assay type: cell-based
Settings: hepg2, 24 h
valueType: Activity
Your reply should be a number followed by the unit it is expressed in.

smilesText	targetEntity	Activity
CCCCCC[P+](CCCCCC)(CCCCCC)CCCCCCOCc1ccc(N(c2ccccc2)c2ccc(COCCCCCC[P+](CCCCCC)(CCCCCC)CCCCCC)cc2)cc1.[Cl-].[Cl-]	HepG2	4.16%

Please go through the list and note Activity for each compound.
1. CCCCCC[P+](CCCCCC)(CCCCCC)CCCCCCOCc1ccc(N(c2ccccc2)c2ccccc2)cc1.[Cl-]
2. CCCCCC[P+](CCCCCC)(CCCCCC)CCCCCCOCc1ccc(N(c2ccc(COCCCCCC[P+](CCCCCC)(CCCCCC)CCCCCC)cc2)c2ccc(COCCCCCC[P+](CCCCCC)(CCCCCC)CCCCCC)cc2)cc1.[Cl-].[Cl-].[Cl-]

["0.09%", "4.28%"]
